Target: T1, human α-CGRP (Homo sapiens, UniProt P06881)
T1 construct: 1-37 (WT); purchased; host or cells: synthetic peptide
T1 sequence (P06881 83-119 limits assumed): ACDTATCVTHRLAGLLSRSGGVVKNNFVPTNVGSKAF
Assay: Biacore affinity of antibody G1 Fab and variants to human α-CGRP
Assay type: binding
Conditions: 37° C., Fab, screening mode unless underlined
molecules and their reported α-human koff
Numeric only. Scale: s⁻¹

M40: G1 variant: L1 R28N; L2 G50A,L56T; H2 E54K,A57L; HC-FW3 L99T,A100V (antibody, V domains shown) VH: EVQLVESGGGLVQPGGSLRLSCAASGFTFSNYWISWVRQAPGKGLEWVAEIRSKSDLSATHYAEAVKGRFTISRDNAKNSLYLQMNSLRAEDTAVYYCTVYFDYGLAIQNYWGQGTLVTVSS VL: EIVLTQSPATLSLSPGERATLSCKASKNVTTYVSWYQQKPGQAPRLLIYAASNRYTGIPARFSGSGSGTDFTLTISSLEPEDFAVYYCSQSYNYPYTFGQGTKLEIK : 0.00128

I am curious: what α-human koff value has been reported for M76: G1 variant: L1 R28N,T30S; L2 G50A,L56T; H2 A57G; HC-FW3 L99T,A100V (antibody, V domains shown) VH: EVQLVESGGGLVQPGGSLRLSCAASGFTFSNYWISWVRQAPGKGLEWVAEIRSESDGSATHYAEAVKGRFTISRDNAKNSLYLQMNSLRAEDTAVYYCTVYFDYGLAIQNYWGQGTLVTVSS VL: EIVLTQSPATLSLSPGERATLSCKASKNVSTYVSWYQQKPGQAPRLLIYAASNRYTGIPARFSGSGSGTDFTLTISSLEPEDFAVYYCSQSYNYPYTFGQGTKLEIK ?
0.000364
